Test: Quantitative High-Throughput drug screen in 47 multiple myeloma cell lines against the NCATS MIPE library collection: XG6_PLB cell viability assay (AID 1919865); note: nearly all actives have a fitted effect of over 40% in size
Settings: XG6 myeloma viability, CellTiter-Glo ATP luminescence, 48 h; series mostly up to 45.8 µM
Inconclusive results are not listed. The source made the active and inactive calls. Calls come from the whole dose curve; as a rule, active = well fitted cell-killing curve with a large enough effect; inconclusive = small, poorly fitted or top-dose-only effect, or effect the other way; inactive = no such curve, though single readings can be large or run the other way.
Return exactly one item of active, inactive

Here's what some known entries look like.
{"columns": ["compound", "class_name"],
 "data": [
  ["Cc1cnc(Nc2ccc(CN3CCOCC3)cc2)nc1Nc1cccc(S(=O)(=O)NC(C)(C)C)c1", "active"],
  ["CC(O)(C#Cc1ccc2c(c1)N(c1nc(N)ncc1Cl)CC2)c1nccs1 (stereo not drawn)", "active"],
  ["CN(N=O)C(=O)N[C@H]1C(O)OC(CO)[C@@H](O)[C@H]1O (stereo partly drawn)", "inactive"],
  ["Cc1cncc2cccc(S(=O)(=O)N3CCCN(C(=O)CN)C[C@@H]3C)c12", "active"],
  ["N#Cc1c(NC(=O)c2cccc3ccccc23)sc2c1CCCC2", "active"],
  ["FC(F)(F)c1ccc(Nc2nc3ccc(Oc4ccnc(-c5ncc(C(F)(F)F)[nH]5)c4)cc3[nH]2)cc1", "active"]
]}

Query block: Dear all, I need the recorded test outcome for C[C@H](NC(=O)Cc1cc(F)cc(F)c1)C(=O)N[C@H](C(=O)OC(C)(C)C)c1ccccc1 , thank you.
Result block: inactive

Query block: How did this test come out for CCS(=O)(=O)Nc1ccc2[nH]c(O)c(C(=Nc3ccc(CN4CCCCC4)cc3)c3ccccc3)c2c1 ?
Result block: active

Query block: Per the assay record, what outcome was assigned to O=C(NC1CC1)c1cccc(-c2ccc3c(NC(=O)C4CC4)n[nH]c3c2)c1 ?
Result block: active

Query block: Tell me the recorded outcome of this test for c1cc(N[C@@H]2CCNC2)nc(-c2cnc3ccc(-c4cn[nH]c4)cn23)c1 .
Result block: active

Query block: Name the outcome recorded for NC(=O)Nc1cc(-c2ccc(CN3CCOCC3)cc2)sc1C(N)=O in the assay.
Result block: active

Query block: Which outcome was entered for the compound COc1cc([C@@H]2c3cc4c(cc3[C@@H](O[C@@H]3O[C@@H]5CO[C@@H](c6cccs6)O[C@@H]5[C@H](O)[C@@H]3O)[C@H]3COC(=O)[C@H]23)OCO4)cc(OC)c1O in this test?
Result block: active

Query block: Which result was noted for this compound in the test: CC(C=CC1=C(C)CCCC1(C)C)=CC=CC(C)=CC(=O)Nc1ccc(O)cc1
Result block: active

Query block: I'd appreciate the recorded outcome for COC[C@H](NC(=O)c1cnc(C)s1)C(=O)N[C@@H](COC)C(=O)N[C@@H](Cc1ccccc1)C(=O)[C@@]1(C)CO1 from this test.
Result block: active

Query block: Just curious, what result did CC(=O)OC[C@@H]1O[C@@H](n2ccc(=O)[nH]c2=O)[C@H](OC(C)=O)[C@H]1OC(C)=O get here?
Result block: inactive

Query block: Hi, do you know how COc1cc(C[C@@H](CO)[C@H](CO)Cc2ccc(O)c(OC)c2)ccc1O came out in this test?
Result block: active

Query block: Please indicate how the test categorized COc1ccnc2[nH]cc(C(=O)C(=O)N3CCN(C(=O)c4ccccc4)C[C@@H]3C)c12 .
Result block: inactive

Query block: Returns: the outcome recorded for O=C(CN1C(=O)C2(CCCC2)NC[C@H]1c1cc(F)cc(F)c1)Nc1ccc2c(c1)C[C@@]1(C2)C(=O)Nc2ncccc21 in this assay.
Result block: inactive
